PROTOCOL: The drug is tested on Bacteroides fragilis strain: ATCC43859 for biotransformation. The drug concentrations were measured before and after a 12-h incubation by liquid-chromatography-coupled mass spectrometry (LC–MS)
SETUP CONDITIONS: 2 µM
MEASURED PARAMETER: Bacterial Biotransformation

| COMPOUND | Bacterial Biotransformation |
| --- | --- |
| CN1CCc2cccc3c2[C@H]1Cc1ccc(O)c(O)c1-3 | Compound NOT metabolized |
| CC(=O)O[C@H]1C(=O)[C@@]2(C)[C@H]([C@H](OC(=O)c3ccccc3)[C@]3(O)C[C@H](OC(=O)[C@H](O)[C@@H](NC(=O)c4ccccc4)c4ccccc4)C(C)=C1C3(C)C)[C@]1(OC(C)=O)CO[C@@H]1C[C@@H]2O | Compound NOT metabolized |
| CC(=O)CCCCn1c(=O)c2c(ncn2C)n(C)c1=O | Compound NOT metabolized |
| COc1ccccc1OCC(O)COC(N)=O (centres undefined) | Compound NOT metabolized |
| COc1ccccc1OCC(O)CN1CCN(CC(=O)Nc2c(C)cccc2C)CC1 (centres undefined) | Compound NOT metabolized |

Bacterial Biotransformation reported for this compound O=C(O)COCCN1CCN(C(c2ccccc2)c2ccc(Cl)cc2)CC1 (centres undefined) : Compound metabolized

Bacterial Biotransformation reported for this compound CN1C(=O)CC(C)(c2ccccc2)C1=O (centres undefined) [METHSUXIMIDE] : Compound NOT metabolized

Bacterial Biotransformation reported for this compound O=C1C(CC[S+]([O-])c2ccccc2)C(=O)N(c2ccccc2)N1c1ccccc1 (centres undefined) : Compound metabolized

Bacterial Biotransformation reported for this compound CCN(CC)CCNC(=O)c1cc(S(C)(=O)=O)ccc1OC [TIAPRIDE] : Compound NOT metabolized

---

PROTOCOL: The drug is tested on Alistipes indistinctus strain: DSM22520 for biotransformation. The drug concentrations were measured before and after a 12-h incubation by liquid-chromatography-coupled mass spectrometry (LC–MS)
SETUP CONDITIONS: 2 µM
MEASURED PARAMETER: Bacterial Biotransformation

Below: 5 compounds and their reported Bacterial Biotransformation.
| COMPOUND | Bacterial Biotransformation |
| --- | --- |
| CC(=O)Nc1ccc(OC(C)=O)cc1 [DIACETAMATE] | Compound metabolized |
| COc1ccnc(C[S+]([O-])c2nc3ccc(OC(F)F)cc3[nH]2)c1OC (configuration not stated) | Compound metabolized |
| Nc1c2c(nc3ccccc13)CCCC2 | Compound NOT metabolized |
| CN1CCN(CC/C=C2/c3ccccc3Sc3ccc(S(=O)(=O)N(C)C)cc32)CC1 | Compound NOT metabolized |
| CSc1ccc2c(c1)C(N1CCN(C)CC1)Cc1ccccc1S2.O=C(O)/C=C\C(=O)O (configuration not stated) | Compound NOT metabolized |

Bacterial Biotransformation reported for this compound O=C1N=C([O-])NC1(c1ccccc1)c1ccccc1.[Na+] [PHENYTOIN SODIUM] : Compound NOT metabolized

Bacterial Biotransformation reported for this compound "CCN(CC)C(=O)/C(C#N)=C/c1cc(O)c(O)c([N+](=O)[O-])c1" : Compound metabolized

Bacterial Biotransformation reported for this compound "CN1[C@@H]2CC[C@H]1C[C@@H](OC(=O)c1c[nH]c3ccccc13)C2" : Compound NOT metabolized

Bacterial Biotransformation reported for this compound CCN1CCCC1CNC(=O)c1cc(S(N)(=O)=O)ccc1OC (configuration not stated) [SULPIRIDE] : Compound NOT metabolized

Bacterial Biotransformation reported for this compound OC(CCN1CCCCC1)(c1ccccc1)C1CC2C=CC1C2 (configuration not stated) : Compound NOT metabolized

Bacterial Biotransformation reported for this compound CCN(CC)CCNC(C(=O)OCCC(C)C)c1ccccc1.Cl.Cl (configuration not stated) : Compound NOT metabolized

Bacterial Biotransformation reported for this compound CC(C)[C@H]1CC[C@H](C(=O)N[C@H](Cc2ccccc2)C(=O)O)CC1 [NATEGLINIDE] : Compound NOT metabolized

---

SETUP CONDITIONS: roseburia intestinalis, 12 h, 2 µM
Description: The drug is tested on Roseburia intestinalis strain: L1-82 for biotransformation. The drug concentrations were measured before and after a 12-h incubation by liquid-chromatography-coupled mass spectrometry (LC–MS)

| COMPOUND | Bacterial Biotransformation |
| --- | --- |
| CN(C)CCOC(C)(c1ccccc1)c1ccccn1.O=C(O)CCC(=O)O (stereo not drawn) [DOXYLAMINE SUCCINATE] | Compound NOT metabolized |
| CC(=O)CCCCn1c(=O)c2c(ncn2C)n(C)c1=O [PENTOXIFYLLINE] | Compound NOT metabolized |

---

PROTOCOL: The drug is tested on Bacteroides uniformis strain: ATCC8492 for biotransformation. The drug concentrations were measured before and after a 12-h incubation by liquid-chromatography-coupled mass spectrometry (LC–MS)
SETUP CONDITIONS: 2 µM
MEASURED PARAMETER: Bacterial Biotransformation

Below: 5 molecules and their reported Bacterial Biotransformation.
| MOLECULE | MEASURED VALUE |
| --- | --- |
| CC(C)c1nc(N(C)S(C)(=O)=O)nc(-c2ccc(F)cc2)c1/C=C/[C@@H](O)C[C@@H](O)CC(=O)[O-].CC(C)c1nc(N(C)S(C)(=O)=O)nc(-c2ccc(F)cc2)c1/C=C/[C@@H](O)C[C@@H](O)CC(=O)[O-].[Ca+2] | Compound NOT metabolized |
| O=C(O[C@H]1C[C@H]2CC[C@@H](C1)[N+]21CCCC1)C(O)(c1ccccc1)c1ccccc1.[Cl-] [TROSPIUM CHLORIDE] | Compound NOT metabolized |
| COc1ccc2[nH]c([S+]([O-])Cc3ncc(C)c(OC)c3C)nc2c1 (stereo unspecified) | Compound metabolized |
| CC(NC(C)(C)C)C(=O)c1cccc(Cl)c1 (stereo unspecified) | Compound NOT metabolized |
| CCN(CC)CC#CCOC(=O)C(O)(c1ccccc1)C1CCCCC1.Cl (stereo unspecified) [OXYBUTYNIN CHLORIDE] | Compound metabolized |

Bacterial Biotransformation reported for this molecule "CCCc1nc(C(C)(C)O)c(C(=O)OCc2oc(=O)oc2C)n1Cc1ccc(-c2ccccc2-c2nnn[nH]2)cc1" : Compound metabolized

---

SETUP CONDITIONS: limosilactobacillus reuteri cf48-3a, 12 h, 2 µM
Description: The drug is tested on Lactobacillus reuteri CF48-3A strain: BEI HM-102 for biotransformation. The drug concentrations were measured before and after a 12-h incubation by liquid-chromatography-coupled mass spectrometry (LC–MS)

| MOLECULE | Bacterial Biotransformation |
| --- | --- |
| CN(C/C=C/C#CC(C)(C)C)Cc1cccc2ccccc12 | Compound NOT metabolized |
| COCCCC/C(=N\OCCN)c1ccc(C(F)(F)F)cc1.O=C(O)/C=C\C(=O)O [FLUVOXAMINE MALEATE] | Compound NOT metabolized |
| CC(C)(C)N.CCC[C@H](N[C@@H](C)C(=O)N1[C@H](C(=O)O)C[C@@H]2CCCC[C@@H]21)C(=O)OCC | Compound NOT metabolized |

---

PROTOCOL: The drug is tested on Clostridium ramosum strain: DSM1402 for biotransformation. The drug concentrations were measured before and after a 12-h incubation by liquid-chromatography-coupled mass spectrometry (LC–MS)
SETUP CONDITIONS: thomasclavelia ramosa, 2 µM
MEASURED PARAMETER: Bacterial Biotransformation

Below: 4 compounds and their reported Bacterial Biotransformation.
| COMPOUND | MEASURED PARAMETER | MEASURED VALUE |
| --- | --- | --- |
| O=C1CN2Cc3c(ccc(Cl)c3Cl)N=C2N1 [ANAGRELIDE] | Bacterial Biotransformation | Compound NOT metabolized |
| C=CC[C@@H]1/C=C(\C)C[C@H](C)C[C@H](OC)[C@H]2O[C@@](O)(C(=O)C(=O)N3CCCC[C@H]3C(=O)O[C@H](/C(C)=C/[C@@H]3CC[C@@H](O)[C@H](OC)C3)[C@H](C)[C@@H](O)CC1=O)[C@H](C)C[C@@H]2OC.O [TACROLIMUS] | Bacterial Biotransformation | Compound metabolized |
| Nc1ccc(/N=N/c2ccccc2)c(N)n1 [PHENAZOPYRIDINE] | Bacterial Biotransformation | Compound metabolized |
| COc1cc2nc(N3CCN(C(=O)c4ccco4)CC3)nc(N)c2cc1OC [PRAZOSIN] | Bacterial Biotransformation | Compound NOT metabolized |

Continue with the next compound.
Bacterial Biotransformation reported for this compound C[C@H]1O[C@@H](O[C@H]2[C@@H](O)C[C@H](O[C@H]3[C@@H](O)C[C@H](O[C@H]4CC[C@@]5(C)[C@H](CC[C@@H]6[C@@H]5C[C@@H](O)[C@]5(C)[C@@H](C7=CC(=O)OC7)CC[C@]65O)C4)O[C@@H]3C)O[C@@H]2C)C[C@H](O)[C@@H]1O [DIGOXIN] : Compound NOT metabolized

---

PROTOCOL: The drug is tested on Blautia hansenii strain: DSM20583 for biotransformation. The drug concentrations were measured before and after a 12-h incubation by liquid-chromatography-coupled mass spectrometry (LC–MS)
SETUP CONDITIONS: 2 µM
MEASURED PARAMETER: Bacterial Biotransformation

Below: 4 compounds and their reported Bacterial Biotransformation.
| COMPOUND | Bacterial Biotransformation |
| --- | --- |
| CCN(C(C)=O)c1cccc(-c2ccnc3c(C#N)cnn23)c1 [ZALEPLON] | Compound metabolized |
| Cc1ccc(-c2nc3ccc(C)cn3c2CC(=O)N(C)C)cc1 [ZOLPIDEM] | Compound NOT metabolized |
| CNNCc1ccc(C(=O)NC(C)C)cc1 [PROCARBAZINE] | Compound NOT metabolized |
| OCCN1CCN(CCCN2c3ccccc3Sc3ccc(C(F)(F)F)cc32)CC1 [FLUPHENAZINE] | Compound NOT metabolized |

Bacterial Biotransformation reported for this compound CCC(=O)NCC[C@@H]1CCc2ccc3c(c21)CCO3 [RAMELTEON] : Compound metabolized

Bacterial Biotransformation reported for this compound Cc1cc(C)cc(OCC2CNC(=O)O2)c1 (stereo unspecified) [METAXALONE] : Compound metabolized
